tested.target: T1, human ASGR-1 mutant construct H203 (human, UniProt P07306 1-291)
T1 construct: Arg/Glu scanning: non-arginine residues were changed to arginine; Transiently expressed on CHO-S cells
T1 sequence: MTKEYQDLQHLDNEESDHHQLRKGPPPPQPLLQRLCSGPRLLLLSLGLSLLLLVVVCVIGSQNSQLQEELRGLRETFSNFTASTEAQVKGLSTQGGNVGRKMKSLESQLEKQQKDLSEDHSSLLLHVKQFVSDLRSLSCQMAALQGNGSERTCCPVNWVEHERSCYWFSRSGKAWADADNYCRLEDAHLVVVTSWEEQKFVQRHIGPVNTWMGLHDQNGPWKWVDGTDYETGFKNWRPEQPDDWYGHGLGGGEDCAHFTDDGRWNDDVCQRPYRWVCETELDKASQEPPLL
experiment.summary: FACS ratio: 65C12 geomean / this mAb geomean
Label yes (1) for high-side Expression Normalization to mAb 65C12 (at or above 2) and no (0) for low-side Expression Normalization to mAb 65C12 (below it).

Example entries begin here.
Problem: Item 194A4 (antibody, V domains shown, mAb) VH: QVQLVQSGTEVKKPGASLKVSCKASGYTFTVYYLNWVRQAPGQGLEWMGWINPNSGGTNYAQKFQGRVTMTRDTSISTAYMELSRLRSDDTAVYYCARGYDILTGWGQGTLVTVSS VL: EIVLTQSPGTLSLSPGERATLSCRASRGVSNIYLAWYQQKPGQAPRLLIYGASNRATGIPDRFSGSGSGTDFTLTISRLEPEDFAVYYCQHNDYSMFTFGPGTKVDIK with Expression Normalization to mAb 65C12 of 2 or above?
Result: yes (1)

Problem: Is it the case that 48B12 (antibody, V domains shown, mAb) VH: EVQLLESGGGLVQPGGSLRLSCAASGFTFSSYAMNWVRQAPGKGLEWVSAISGRGGNTFYADSVKGRFTISRDNSKNTLYLQMNSLRAEDTAVYYCAKRETYNWNYEGFDYWGQGTLVTVSS VL: SYELTQPPSVSVSPGQTARITCSGDALPKKYAYWYQQKSGQAPVLVIYEDSKRPSGIPERFSGSSSGTMATLTISGAQVEDEADYYCNSTDSSGNHVVFGGGTKLTVL has Expression Normalization to mAb 65C12 reaching or exceeding 2?
Result: no (0)

With those in mind, consider the next binder.
Problem: In plain terms: is recorded Expression Normalization to mAb 65C12 at least 2 for 75G3 (antibody, V domains shown, mAb) VH: QVQLQQWGAGLLKPSETLSLTCAVYGGSLSGSYWSWIRQPPGKGLEWIGEINLSGSTNYNPSLKSRVTISVDTSKSQFSLTLRSVTAADTAVYYCARDYGGLDYWGQGTLVTVSS VL: EIVLTQSPGTLSLSPGERATLSCRARQNVDSSYLAWYQQKPGQAPRLLIYGASSRATGIPDRFSGSGSGTDFTLTISRLEPEDFAVFYCQQYERSPWTFGQGTKVEIK ?
Result: no (0)
